# MEASURED TARGET: human SCD5 (Homo sapiens, UniProt Q86SK9)
# Construct: expressed in transfected cells; host or cells: yeast strain with OLE1 deleted, plasmid-borne human SCD5 (selected in SD-Ura)
# Sequence (Q86SK9 whole entry): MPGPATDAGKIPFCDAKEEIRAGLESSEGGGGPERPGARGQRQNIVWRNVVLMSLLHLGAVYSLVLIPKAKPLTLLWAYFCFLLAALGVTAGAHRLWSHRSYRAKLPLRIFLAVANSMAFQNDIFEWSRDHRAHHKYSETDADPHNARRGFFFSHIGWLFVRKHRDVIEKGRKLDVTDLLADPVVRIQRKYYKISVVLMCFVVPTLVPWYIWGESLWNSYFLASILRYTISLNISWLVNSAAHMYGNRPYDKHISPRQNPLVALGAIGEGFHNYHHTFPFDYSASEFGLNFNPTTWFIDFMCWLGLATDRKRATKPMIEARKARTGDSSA
# PROTOCOL DETAILS: Growth inhibition of yeast strain expressing human SCD5 as sole desaturase (OLE1 deleted), OD600 readout
# Format: cell-based
# TEST PARAMETERS: yeast strain expressing human SCD5 as sole desaturase; growth (OD600) after 40 h at 30° C.; read-out: SCD5 IC50
REPORTED ENDPOINT: IC50 (nM)

Some molecules with known IC50 results, for comparison:
>>> df
                                   molecule  reported_endpoint  assay_result
0  Cn1cc(C(=O)Nc2ccc(Cc3cccc(Cl)c3)cn2)ncc1=O [Compound 108]               IC50          1400
1  Cn1ccc(C(=O)Nc2ccc(Cc3ccc(F)cc3)cn2)n1 [Compound 93]               IC50            20
2  O=C(Nc1ccc(Cc2cccc(Cl)c2)cn1)N1CC2(COC2)C1 [Compound 250]               IC50          9750
3  Cn1nc(C(=O)Nc2ccc(Cc3ccc(F)cc3F)cn2)ccc1=O [Compound 537]               IC50           490
4  Cn1nc(NC(=O)c2ccc(Cc3ccc(F)c(F)c3)cn2)ccc1=O [Compound 312]               IC50            30
5  Cn1nc(C(=O)Nc2ccc(Cc3cc(F)cc(C(F)F)c3)cn2)ccc1=O [Compound 562]               IC50            10

(P) Cc1cc(C(=O)Nc2ccc(Cc3cccc(F)c3)cn2)no1 [Compound 107]
(Q) O=C(O)c1cnc(C(=O)Nc2ccc(Cc3ccc(F)c(F)c3)cn2)cn1 [Compound 554]
Query block: IC50 comparison. Which is larger, P or Q ? # reply format: chosen label
Result block: Q
(Q: 8800 nM, P: 1060 nM)

---

Consider the following compounds and their measured IC50 readings.
# MEASURED TARGET: human SCD1 (Homo sapiens, UniProt O00767)
# Construct: expressed in transfected cells; host or cells: yeast strain with OLE1 deleted, plasmid-borne human SCD1 (selected in SD-Ura)
# Sequence (O00767 whole entry): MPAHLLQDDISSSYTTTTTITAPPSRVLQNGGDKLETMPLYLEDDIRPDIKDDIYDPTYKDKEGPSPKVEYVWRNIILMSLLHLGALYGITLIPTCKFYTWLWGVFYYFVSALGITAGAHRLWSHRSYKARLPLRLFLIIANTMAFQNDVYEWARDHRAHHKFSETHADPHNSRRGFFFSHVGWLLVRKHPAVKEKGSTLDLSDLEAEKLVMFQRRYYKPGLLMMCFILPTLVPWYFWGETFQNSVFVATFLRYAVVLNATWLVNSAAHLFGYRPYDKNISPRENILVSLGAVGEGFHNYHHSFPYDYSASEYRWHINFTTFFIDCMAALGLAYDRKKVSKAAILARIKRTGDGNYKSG
# PROTOCOL DETAILS: Growth inhibition of yeast strain expressing human SCD1 as sole desaturase (OLE1 deleted), OD600 readout
# Type: cell-based
# TEST PARAMETERS: yeast strain expressing human SCD1 as sole desaturase; growth (OD600) after 40 h at 30° C.; read-out: SCD1 IC50

Record excerpt, results attached:
>>> df
                            chemical_smiles  assay_result
0  CN1N=C(C(=O)Nc2ccc(Cc3cccc(C(F)(F)F)c3)nn2)CCC1=O       > 45 µM
1  Cn1cc(C(=O)Nc2ccc(Cc3cc(F)c(F)c(F)c3)nn2)ccc1=O       > 45 µM
2  O=C(Nc1ccc(Cc2cccc(Cl)c2)cn1)N1CC2(COC2)C1       > 45 µM

Query block: Tell me its IC50 given "Cn1nc(C(=O)Nc2ccc(COc3ccc(Cl)c(F)c3)cn2)ccc1=O" as the entry.
Result block: > 45 µM
